Molecular target: T1, NPR-B (natriuretic peptide receptor B), murine, expressed endogenously on NIH3T3 cells (murine, UniProt Q6VVW5 17-1047)
T1 sequence (looked up): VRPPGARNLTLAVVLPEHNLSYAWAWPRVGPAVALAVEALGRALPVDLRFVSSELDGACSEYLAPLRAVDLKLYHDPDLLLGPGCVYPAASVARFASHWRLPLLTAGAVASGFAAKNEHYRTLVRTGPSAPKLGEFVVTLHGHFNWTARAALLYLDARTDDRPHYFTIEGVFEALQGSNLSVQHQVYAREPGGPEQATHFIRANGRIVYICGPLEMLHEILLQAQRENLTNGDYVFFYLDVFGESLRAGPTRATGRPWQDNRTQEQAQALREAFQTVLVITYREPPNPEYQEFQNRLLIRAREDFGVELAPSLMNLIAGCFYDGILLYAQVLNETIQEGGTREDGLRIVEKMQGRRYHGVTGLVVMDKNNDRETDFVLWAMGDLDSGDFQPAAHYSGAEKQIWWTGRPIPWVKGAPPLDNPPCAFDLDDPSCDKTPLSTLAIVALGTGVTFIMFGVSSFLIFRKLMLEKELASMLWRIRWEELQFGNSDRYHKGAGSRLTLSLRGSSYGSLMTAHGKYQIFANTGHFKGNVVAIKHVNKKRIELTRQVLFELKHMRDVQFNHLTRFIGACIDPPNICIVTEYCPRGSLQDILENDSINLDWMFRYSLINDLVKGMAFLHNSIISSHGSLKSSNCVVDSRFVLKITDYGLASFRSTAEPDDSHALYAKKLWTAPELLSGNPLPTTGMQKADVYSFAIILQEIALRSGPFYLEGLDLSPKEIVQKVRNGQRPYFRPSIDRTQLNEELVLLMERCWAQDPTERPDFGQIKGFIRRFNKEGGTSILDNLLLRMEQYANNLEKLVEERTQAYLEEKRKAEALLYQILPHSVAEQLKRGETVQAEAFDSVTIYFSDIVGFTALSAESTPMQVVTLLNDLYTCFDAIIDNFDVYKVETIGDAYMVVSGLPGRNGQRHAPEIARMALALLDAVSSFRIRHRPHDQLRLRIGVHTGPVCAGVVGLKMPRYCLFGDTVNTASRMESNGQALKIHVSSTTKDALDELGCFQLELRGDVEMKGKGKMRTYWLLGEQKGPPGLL
Test: cell-based or functional assay
Where no end group is shown, it is not given here. PEO12 = PEO12, 0.6 kDa, monodispersed; PEO24 = PEO24, 1.2 kDa, monodispersed
readout: cGMP response rel. to 1 uM CNP22; 10 nM peptide, NIH3T3 cells

{"binder": "PEO12-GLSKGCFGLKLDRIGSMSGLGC (ends and bridges not checked) [PEO12-CNP22]", "recorded_result": "12 rel. to 1 uM CNP22 (100)"}

For the 8 binders below, give their cGMP response rel. to 1 uM CNP22; 10 nM peptide, NIH3T3 cells values.
1. {PEG 5 kDa}-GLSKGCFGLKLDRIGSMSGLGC (ends and bridges not checked; also: PEG polydispersed) [PEG5K-CNP22]
2. PEO24-GANSSGLSRGCFGLKLDRIGSMSGLGC (ends and bridges not checked) [PEO24-GANSS-CNP22, K4R]
3. PEG2K-CFGLKLDRIGSMSGLGC (ends and bridges not checked) [PEG2K-CNP17]
4. PEO12-GANQQGLSRGCFGLKLDRIGSMSGLGC (ends and bridges not checked) [PEO12-GANQQ-CNP22, K4R]
5. {PEG 2 kDa}-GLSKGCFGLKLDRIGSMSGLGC (ends and bridges not checked) [PEG2K-CNP22]
6. PEO24-GANQQGLSRGCFGLKLDRIGSMSGLGC (ends and bridges not checked) [PEO24-GANQQ-CNP22, K4R]
7. {PEG 20 kDa}-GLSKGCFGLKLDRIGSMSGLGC (ends and bridges not checked) [PEG20K-CNP22]
8. PEO24-GLSRGCFGLKLDRIGSMSGLGC (ends and bridges not checked) [PEO24-CNP22, K4R]

1. 8 rel. to 1 uM CNP22 (100)
2. 8 rel. to 1 uM CNP22 (100)
3. 5 rel. to 1 uM CNP22 (100)
4. 30 rel. to 1 uM CNP22 (100)
5. 6 rel. to 1 uM CNP22 (100)
6. 16 rel. to 1 uM CNP22 (100)
7. 0 rel. to 1 uM CNP22 (100)
8. 15 rel. to 1 uM CNP22 (100)
